B1: HDV Ribozyme (parent)
chain: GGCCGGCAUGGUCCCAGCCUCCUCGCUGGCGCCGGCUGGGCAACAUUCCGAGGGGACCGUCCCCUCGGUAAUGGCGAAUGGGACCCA

# Variants of: B1
# RUN_DESCRIPTION: self-cleavage, relative activity (ratio to wild type); higher = more cleavage; co-transcriptional
I would appreciate it if you labelled entries 1 when self-cleavage is 0.3 or higher, otherwise -1.

{"MUTATION_KEY": "C32A G81U", "ASSIGNED_LABEL": -1}
{"MUTATION_KEY": "A42C C44U", "ASSIGNED_LABEL": -1}
{"MUTATION_KEY": "C22G C61G", "ASSIGNED_LABEL": -1}
{"MUTATION_KEY": "G40C U60G", "ASSIGNED_LABEL": -1}
{"MUTATION_KEY": "G5A A16U", "ASSIGNED_LABEL": 1}
{"MUTATION_KEY": "U23C U69C", "ASSIGNED_LABEL": 1}
{"MUTATION_KEY": "G50A C63G", "ASSIGNED_LABEL": -1}
{"MUTATION_KEY": "C13U C86A", "ASSIGNED_LABEL": 1}
{"MUTATION_KEY": "C19U G68C", "ASSIGNED_LABEL": -1}
{"MUTATION_KEY": "G53U", "ASSIGNED_LABEL": 1}
{"MUTATION_KEY": "G38C G59A", "ASSIGNED_LABEL": -1}
{"MUTATION_KEY": "G11A C24U", "ASSIGNED_LABEL": -1}
{"MUTATION_KEY": "U23C G54U", "ASSIGNED_LABEL": 1}
{"MUTATION_KEY": "U9G G76A", "ASSIGNED_LABEL": 1}
{"MUTATION_KEY": "C15A A56C", "ASSIGNED_LABEL": 1}
{"MUTATION_KEY": "G1U G52A", "ASSIGNED_LABEL": 1}
{"MUTATION_KEY": "C4A G53U", "ASSIGNED_LABEL": -1}
{"MUTATION_KEY": "G1U G50C", "ASSIGNED_LABEL": -1}
{"MUTATION_KEY": "C49U C64U", "ASSIGNED_LABEL": 1}
{"MUTATION_KEY": "C66U U72G", "ASSIGNED_LABEL": 1}
{"MUTATION_KEY": "A16G U60G", "ASSIGNED_LABEL": 1}
{"MUTATION_KEY": "C62U C64G", "ASSIGNED_LABEL": 1}
{"MUTATION_KEY": "C24U G80A", "ASSIGNED_LABEL": -1}
{"MUTATION_KEY": "G5A G74A", "ASSIGNED_LABEL": -1}
{"MUTATION_KEY": "A45G G55U", "ASSIGNED_LABEL": 1}
{"MUTATION_KEY": "U46G G59U", "ASSIGNED_LABEL": 1}
{"MUTATION_KEY": "U20C U69A", "ASSIGNED_LABEL": -1}
{"MUTATION_KEY": "C32G C61G", "ASSIGNED_LABEL": -1}
{"MUTATION_KEY": "G29A G35U", "ASSIGNED_LABEL": -1}
{"MUTATION_KEY": "U9G U23A", "ASSIGNED_LABEL": 1}
{"MUTATION_KEY": "C21G G25U", "ASSIGNED_LABEL": -1}
{"MUTATION_KEY": "U9G G80U", "ASSIGNED_LABEL": -1}
{"MUTATION_KEY": "U23G U69G", "ASSIGNED_LABEL": 1}
{"MUTATION_KEY": "U60C C66A", "ASSIGNED_LABEL": 1}
{"MUTATION_KEY": "C49U A78G", "ASSIGNED_LABEL": 1}
{"MUTATION_KEY": "C32G G73C", "ASSIGNED_LABEL": -1}
{"MUTATION_KEY": "G40U G82C", "ASSIGNED_LABEL": -1}
{"MUTATION_KEY": "C32U C49U", "ASSIGNED_LABEL": 1}
{"MUTATION_KEY": "G29U G40C", "ASSIGNED_LABEL": -1}
{"MUTATION_KEY": "G38A U47C", "ASSIGNED_LABEL": -1}
{"MUTATION_KEY": "C22G G40U", "ASSIGNED_LABEL": -1}
{"MUTATION_KEY": "G40U C44A", "ASSIGNED_LABEL": -1}
{"MUTATION_KEY": "A16G G29C", "ASSIGNED_LABEL": -1}
{"MUTATION_KEY": "U23C U79A", "ASSIGNED_LABEL": 1}
{"MUTATION_KEY": "C48A A70C", "ASSIGNED_LABEL": 1}
